The values you see were collected from paper PMC12808645.

Target: stink bug Nan-Iav
Details: read-out: [3H]-AP binding Kd
outcome measure: Kd (nM)
Please give a number only; it is taken to be in nM.

Reported Kd, compound C[C@]1(COC(=O)C2CC2)[C@@H]2C[C@H](O)[C@@]3(C)Oc4cc(-c5cccnc5)oc(=O)c4[C@H](O)[C@@H]3[C@@]2(C)CC[C@@H]1OC(=O)C1CC1 [[^3H]-AP] : ____
0.017

----------
Biological target: Nan only, WT
Assay: [3H]-AP binding to Nan-only membranes, WT
Settings: read-out: [3H]-AP binding Kd
outcome measure: pKd
Schema: pKd number; meaning minus log10 of the concentration expressed in molar units.

Which pKd value belongs to C[C@]1(COC(=O)C2CC2)[C@@H]2C[C@H](O)[C@@]3(C)Oc4cc(-c5cccnc5)oc(=O)c4[C@H](O)[C@@H]3[C@@]2(C)CC[C@@H]1OC(=O)C1CC1 [[^3H]-AP] ?
10.05
